STUDY SYSTEM: Mu-type opioid receptor (Homo sapiens) (UniProt P35372)
Sequence (P35372 whole entry): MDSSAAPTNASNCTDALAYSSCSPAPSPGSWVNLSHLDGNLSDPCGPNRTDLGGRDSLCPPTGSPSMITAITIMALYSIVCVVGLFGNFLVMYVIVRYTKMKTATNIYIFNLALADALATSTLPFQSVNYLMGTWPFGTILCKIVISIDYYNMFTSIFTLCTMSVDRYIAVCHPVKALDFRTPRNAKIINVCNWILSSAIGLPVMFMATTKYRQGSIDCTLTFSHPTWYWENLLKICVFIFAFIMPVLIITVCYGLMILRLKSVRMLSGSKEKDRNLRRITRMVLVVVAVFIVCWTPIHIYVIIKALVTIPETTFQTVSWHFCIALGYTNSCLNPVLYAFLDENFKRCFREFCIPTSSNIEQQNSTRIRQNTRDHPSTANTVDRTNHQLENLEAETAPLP
ASSAY SETUP: CHO
Description: Antagonist activity at human mu opioid receptor expressed in CHO cells assessed as inhibition of DAMGO-stimulated [35S]GTPgammaS binding
List of Ke values.

{"SMILES REPRESENTATION": "Cc1cccc(Oc2ccc(C(=O)N[C@H](CN3CCN(c4cccc(O)c4)[C@@H](C)C3)C(C)C)cc2O)c1", "Ke": "13.7 nM"}
{"SMILES REPRESENTATION": "Cc1cccc(Oc2ccc(C(=O)N[C@H](CN3CCN(c4cccc(O)c4)[C@@H](C)C3)C(C)C)cc2C)c1", "Ke": "14.4 nM"}
{"SMILES REPRESENTATION": "COc1cc(C(=O)N[C@H](CN2CCN(c3cccc(O)c3)[C@@H](C)C2)C(C)C)ccc1Oc1ccccc1O", "Ke": "74 nM"}
{"SMILES REPRESENTATION": "COc1cc(Oc2cccc(C)c2)ccc1C(=O)N[C@H](CN1CCN(c2cccc(O)c2)[C@@H](C)C1)C(C)C", "Ke": "49 nM"}

---

List of Ratio Ke values.
Organism: Homo sapiens
TEST DESCRIPTION: Selectivity ratio of Ke for human mu opioid receptor to Ke for human kappa opioid receptor
OUTCOME MEASURE: Ratio Ke

{"SMILES REPRESENTATION": "COc1cc(C(=O)N[C@H](CN2CCN(c3cccc(O)c3)[C@@H](C)C2)C(C)C)ccc1Oc1ccccc1O", "OUTCOME MEASURE": "Ratio Ke", "DATA VALUE": 5}
{"SMILES REPRESENTATION": "CC(C)[C@@H](CN1CCN(c2cccc(O)c2)[C@@H](C)C1)NC(=O)c1ccc(Oc2cccc(C(F)(F)F)c2)cc1", "OUTCOME MEASURE": "Ratio Ke", "DATA VALUE": 18}
{"SMILES REPRESENTATION": "CC(C)[C@@H](CN1CCN(c2cccc(O)c2)[C@@H](C)C1)NC(=O)c1ccc(Oc2cccc(Cl)c2)cc1", "OUTCOME MEASURE": "Ratio Ke", "DATA VALUE": 43}
{"SMILES REPRESENTATION": "CC(C)[C@@H](CN1CCN(c2cccc(O)c2)[C@@H](C)C1)NC(=O)c1ccc(-c2ccccc2)cc1", "OUTCOME MEASURE": "Ratio Ke", "DATA VALUE": 4.7}
{"SMILES REPRESENTATION": "Cc1cc(C(=O)N[C@H](CN2CCN(c3cccc(O)c3)[C@@H](C)C2)C(C)C)ccc1Oc1ccccc1", "OUTCOME MEASURE": "Ratio Ke", "DATA VALUE": 24}
{"SMILES REPRESENTATION": "COc1ccc(C(=O)N[C@H](CN2CCN(c3cccc(O)c3)[C@@H](C)C2)C(C)C)cc1OC", "OUTCOME MEASURE": "Ratio Ke", "DATA VALUE": 4}
{"SMILES REPRESENTATION": "CC(C)[C@@H](CN1CCN(c2cccc(O)c2)[C@@H](C)C1)NC(=O)c1ccc(Oc2ccccc2)nc1", "OUTCOME MEASURE": "Ratio Ke", "DATA VALUE": 38}
{"SMILES REPRESENTATION": "COc1cc(C(=O)N[C@H](CN2CCN(c3cccc(O)c3)[C@@H](C)C2)C(C)C)ccc1Oc1cc(C)ccc1O", "OUTCOME MEASURE": "Ratio Ke", "DATA VALUE": 1.6}

Data origin: ChEMBL document CHEMBL2380235
